Method description: NCI Yeast Anticancer Drug Screen. Data for the sgs1 strain (AID 173);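 further: 0% = growth of vehicle-only control cultures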
Condition parameters: S. cerevisiae sgs1 mutant, at 3.7 µM
This is part of a sample that, as a whole, favours compounds with a hit. Of some 79,000 tested, about 15% had one in any assay. Activity calls are given as the source filed them. No stated cut-off is given here; in the data, active means growth inhibition above about 70%; inactive means the rest.
Outcomes you can answer with include only these: 1.0 = active, 0.0 = inactive

As a guide, the following entries are already answered.
O=C(COc1ccc(Cl)cc1Cl)NO = 0.0
Oc1ccc(Cl)cc1Cc1ccccc1 = 0.0
O=C1OC2C(O1)C1(Cl)C(Cl)=C(Cl)C2(Cl)C1(Cl)Cl (configuration not stated) = 0.0
COc1cc([C@@H]2c3cc4c(cc3C[C@@H]3COC(=O)C32)OCO4)cc(OC)c1O (some centres not stated) = 0.0
Oc1c(Br)cc(Br)cc1Br = 0.0

Query: // param item: NC1=NCC(c2ccc(Cl)cc2)O1 (configuration not stated) ; yields the recorded call
Reply: 0.0
